Values compiled from the supplement of paper PMC10477900.

System: HCT116
Assay: viability inhibition vs untreated; higher = more cytotoxic
Conditions: genotype: MTA1-KO; 400 nM; 72 h
Structures can show the parent of a compound that is named as a salt.
ASSAY_METRIC: viability inhibition (%)
Your answer is read as %, so omit the unit and give the number.

viability inhibition of CN1CCN(C(=O)COc2ccc(C34CC5CC(CC(C5)C3)C4)cc2)CC1 , assay on HCT116, is 2.4

Reading of viability inhibition for S=c1nc[nH]c2nc[nH]c12 [Mercaptopurine] with HCT116: -16.8

Short answer on HCT116 for COc1ccc2[nH]cc(CCNC(C)=O)c2c1 [Melatonine] , viability inhibition: 6.76

Record NS(=O)(=O)c1cc2c(cc1C(F)(F)F)NC(Cc1ccccc1)NS2(=O)=O (configuration not stated) [Bendroflumethiazide] has HCT116 viability inhibition equal to -5.2

Bench note, HCT116: entry COc1ccccc1OCC(O)CN1CCN(CC(=O)Nc2c(C)cccc2C)CC1 (configuration not stated) [Ranolazine dihydrochloride] , its viability inhibition = -7.85

Recorded viability inhibition for Nc1ccc(-c2ccc3ncc4ccc(=O)n(-c5cccc(C(F)(F)F)c5)c4c3c2)cn1 [Torin 2] on HCT116 was 77.4

// compound O=C(NCCCNc1nc(Nc2cccc(NC(=O)N3CCCC3)c2)ncc1I)c1cccs1 [BX795] , assay HCT116, viability inhibition value: -26.4

So the reported viability inhibition for Cc1ccc2c(c1)C(=O)[C@]1(O)CCN(c3ccccc3)C1=N2 [(-)-Blebbistatin] , on HCT116, turned out to be -2.06

viability inhibition for HCT116 with input O=[N+]([O-])c1ccc(Nc2ccccc2-c2ccccc2)c2nonc12 equals -10.8

HCT116 data for O=c1cc(N2CCOCC2)oc2c(-c3ccc4c(c3)OCCO4)csc12 [SF2523] ; its viability inhibition: -9.52

Measured viability inhibition (HCT116), entry Cc1ccc(Oc2nc3cc(-c4ccc(-c5ccccc5)cc4)c(Cl)cc3[nH]2)cc1C(=O)O [MK3903] : -10.6

Result for Cc1cc(C2CCCCC2)n(O)c(=O)c1 [Ciclopirox] , tested on HCT116, viability inhibition: -8.33

Entry CCC(=O)N1CCN(c2ccc(-n3c(=O)ccc4cnc5ccc(-c6cnc7ccccc7c6)cc5c43)cc2C(F)(F)F)CC1 [Torin 1] , tested on HCT116, has a reported viability inhibition of 52

Item: O=C(O[C@@H]1Cc2c(O)cc(O)cc2O[C@@H]1c1cc(O)c(O)c(O)c1)c1cc(O)c(O)c(O)c1 [(-)-Epigallocatechin Gallate] | System: HCT116 | viability inhibition: 5.38

viability inhibition value, target or system HCT116, for COc1ccc(-c2ccccc2)cc1NS(=O)(=O)c1cc(Cl)cc(Cl)c1O : -3.79

# value of viability inhibition, HCT116, item CO[C@H]1C[C@@H]2CC[C@@H](C)[C@@](O)(O2)C(=O)C(=O)N2CCCC[C@H]2C(=O)O[C@H]([C@H](C)C[C@@H]2CC[C@@H](O)[C@H](OC)C2)CC(=O)[C@H](C)/C=C(\C)[C@@H](O)[C@@H](OC)C(=O)[C@H](C)C[C@H](C)/C=C/C=C/C=C/1C [Rapamycin] = 3.36

Measured viability inhibition (HCT116), entry CC1=NS(=O)(=O)c2cc(Cl)ccc2N1 [Diazoxide] : 16.2
